Ref: patent US9808527B2

# Test system: Ba-L (B-R5)
# method: p24 Gag production inhibition, PHA-PBMs, subtype B Ba-L
# Format: cell-based, HIV-1
# stated_conditions: Human immunodeficiency virus 1, BAL; PHA-PBMs, p24 Gag production; read-out: IC50 against Ba-L (B-R5)
value_kind: log10 of IC50 (log10 of the value in nM)
// units: nM (pre-log); metric: IC50; scale: log10

>>> number("Cc1cccc(C)c1OCC(=O)N[C@@H](Cc1ccccc1)[C@@H](O)C[C@H](Cc1ccccc1)NC(=O)[C@H](C(C)C)N1CCCNC1=O [LPV, lopinavir]")
0.72
>>> number("CC(C)c1nc(CN(C)C(=O)N[C@H](C(=O)N[C@@H](Cc2ccccc2)C[C@H](O)[C@H](Cc2ccccc2)NC(=O)OCc2cncs2)C(C)C)cs1 [RTV, ritonavir]")
1.36
>>> number("CC(C)CN(C[C@@H](O)[C@H](Cc1ccccc1)NC(=O)O[C@H]1CCOC1)S(=O)(=O)c1ccc(N)cc1 [APV, Amprenavir]")
1.40

Hi! Can you tell me log10 of IC50 for each of these compounds?
1. COC(=O)N[C@H](C(=O)N[C@@H](Cc1ccccc1)[C@@H](O)CN(Cc1ccc(-c2ccccn2)cc1)NC(=O)[C@@H](NC(=O)OC)C(C)(C)C)C(C)(C)C [ATV, Atazanavir]
2. CC(C)CN(CC(O)C(Cc1ccccc1)NC(=O)OC1COC2OCCC12)S(=O)(=O)c1ccc2c(c1)OCO2 (stereo not shown) [GRL-98065]
3. Cc1c(O)cccc1C(=O)N[C@@H](CSc1ccccc1)[C@H](O)CN1C[C@H]2CCCC[C@H]2C[C@H]1C(=O)NC(C)(C)C [NFV, Nelfinavir]
4. CC(C)(C)NC(=O)[C@@H]1CN(Cc2cccnc2)CCN1C[C@@H](O)C[C@@H](Cc1ccccc1)C(=O)N[C@H]1c2ccccc2C[C@H]1O [IDV, indinavir]

1: 0.11; 2: -0.70; 3: 1.26; 4: 1.34
